- tested system: OsSMF1 (Oryza sativa, UniProt Q6ZLB0 1-436)
- Sequence: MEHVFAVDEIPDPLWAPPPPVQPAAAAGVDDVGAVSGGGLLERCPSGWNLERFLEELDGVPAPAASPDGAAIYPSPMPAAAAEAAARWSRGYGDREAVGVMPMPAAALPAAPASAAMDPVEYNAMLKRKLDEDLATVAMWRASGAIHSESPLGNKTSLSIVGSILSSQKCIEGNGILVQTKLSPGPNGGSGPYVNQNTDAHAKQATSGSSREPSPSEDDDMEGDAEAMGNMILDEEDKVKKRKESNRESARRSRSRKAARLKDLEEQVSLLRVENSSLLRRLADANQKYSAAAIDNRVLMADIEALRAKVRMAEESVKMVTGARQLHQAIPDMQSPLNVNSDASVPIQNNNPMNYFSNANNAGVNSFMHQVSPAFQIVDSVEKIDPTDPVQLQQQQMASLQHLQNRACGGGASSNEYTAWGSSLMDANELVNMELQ
- experimental protocol: protein-binding microarray (RPBM); PBS, 2% BSA, 51.3 ng/ul salmon testes DNA, 50 uM zinc acetate, 200 nM TF, 25 C, 1 h; high values mean tight binding
- experimental parameters: protein: recombinant; tags: N-terminal polyhistidine and DsRed monomer fusion (pET32a); chain copies: 2; label: CyDye5-dUTP incorporated in the synthesized complementary strand; 3' TTTTT single-stranded linker to array surface; dsDNA, one strand shown
In all, about 39,000 sequences were measured (“fluorescence intensity (a.u.)”: median about 4,300, highest 2% from about 39,000 on). The full list was thinned out, with the highest values kept by preference.
Field: binding signal. Provide a value for each of the sequences that follow.

Please review the entries below; each comes with its answer.
{"columns": ["primary sequence", "binding signal"],
 "data": [
  ["TTCCATTTCTTCCCCTCGCCAAGGCGAGGCCGCGAGAGGGCGGAGTCACCTAGTGCAG", "9040 fluorescence intensity (a.u.)"],
  ["GCAATCCCACGTTATCCATCACCCCACCGGGGAAGCCCAACGGAGTCACCTAGTGCAG", "3310 fluorescence intensity (a.u.)"],
  ["CACACGCCAACCCGGCCCCACACGTCAGCCACTCCCACTGCGGAGTCACCTAGTGCAG", "7300 fluorescence intensity (a.u.)"],
  ["AACCAGTCGCCGCTCGCCACGTGGCACCCTCCACCTCCCTCGGAGTCACCTAGTGCAG", "50500 fluorescence intensity (a.u.)"],
  ["TGCGCGTCCTGCTCGCCGCTGCCCTCGCTGAGGAGCTCTCCGGAGTCACCTAGTGCAG", "63600 fluorescence intensity (a.u.)"],
  ["TCGCCAACTCGCGCCCAATCCCGGCTTGACACGTCACCCCCGGAGTCACCTAGTGCAG", "42000 fluorescence intensity (a.u.)"],
  ["CAATCCCCTAGCCTCGCCACCCGCCACGTGTCGTCCCGCGCGGAGTCACCTAGTGCAG", "13500 fluorescence intensity (a.u.)"],
  ["ACCTCCTCCACCTCCATGGCTCACCACCACGTACAGCAAACGGAGTCACCTAGTGCAG", "3360 fluorescence intensity (a.u.)"]
]}

Next item in the queue.
Lookup: What binding signal value was documented for this sequence, AACCACCCTCCGCCGCCGCCGCCGCTCGCCGTAGTCACCTCGGAGTCACCTAGTGCAG ?
Found: 3180 fluorescence intensity (a.u.)

====

- tested system: OsSMF1 (Oryza sativa, UniProt Q6ZLB0 1-436)
- Sequence: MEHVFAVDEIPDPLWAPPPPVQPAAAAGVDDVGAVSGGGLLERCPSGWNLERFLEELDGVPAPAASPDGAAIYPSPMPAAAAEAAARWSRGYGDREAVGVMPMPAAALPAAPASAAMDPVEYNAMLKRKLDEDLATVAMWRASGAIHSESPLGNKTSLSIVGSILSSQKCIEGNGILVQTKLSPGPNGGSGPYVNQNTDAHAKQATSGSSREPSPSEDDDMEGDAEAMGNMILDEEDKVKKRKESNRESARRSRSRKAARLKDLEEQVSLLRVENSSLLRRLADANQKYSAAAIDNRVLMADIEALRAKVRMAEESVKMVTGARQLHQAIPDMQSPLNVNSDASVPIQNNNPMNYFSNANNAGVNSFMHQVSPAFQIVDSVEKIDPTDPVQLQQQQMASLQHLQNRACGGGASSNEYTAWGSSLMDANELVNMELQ
- experimental protocol: protein-binding microarray (RPBM); PBS, 2% BSA, 51.3 ng/ul salmon testes DNA, 50 uM zinc acetate, 200 nM TF, 25 C, 1 h; high values mean tight binding
- experimental parameters: protein: recombinant; tags: N-terminal polyhistidine and DsRed monomer fusion (pET32a); chain copies: 2; label: CyDye5-dUTP incorporated in the synthesized complementary strand; 3' TTTTT single-stranded linker to array surface; dsDNA, one strand shown
Over roughly 39,000 sequences, “fluorescence intensity (a.u.)” has its median near 4,300; the highest 2% begin near 39,000. This is one part of a sample in which the highest values are shown more often than they occur.
Provide the recorded binding signal for the entries that follow.

{"columns": ["primary sequence", "observed measurement"],
 "data": [
  ["CATTATCTAAGTTTCTTTACGTCATTATCTTCGTTTAATTCGGAGTCACCTAGTGCAG", "3230 fluorescence intensity (a.u.)"],
  ["GACGTGGTAAGTTAACTTGGTTAAAATGTGCTGACGTGGTCGGAGTCACCTAGTGCAG", "24700 fluorescence intensity (a.u.)"]
]}

Would you mind listing binding signal for each of the following sequences?
1. AGTACATAATTACGCACATGTGACACACACCACACATACTCGGAGTCACCTAGTGCAG
2. CAATCCAACCGTCGTCGCGCCGCACACCGGCCACCCACCCCGGAGTCACCTAGTGCAG
3. ATACGATACCATAGGTATGTCAGCATGATATATATGTACTCGGAGTCACCTAGTGCAG
4. TTCTTTCGTTAGTTCACCAAAGATGGGCATTTTACTAAGACGGAGTCACCTAGTGCAG
5. CACTTGATGAGCTCCTCTCCATGTCCTCAAACGTACTGAACGGAGTCACCTAGTGCAG
6. GTCGCCGCCGCTCCTCCACCCCACGTGCCCCTCGTGGTGGCGGAGTCACCTAGTGCAG
7. AGTGCCACTTAAGCGCCACATCAACGCCACATGGAAAGAACGGAGTCACCTAGTGCAG

Found:
1: 3140 fluorescence intensity (a.u.); 2: 20700 fluorescence intensity (a.u.); 3: 3890 fluorescence intensity (a.u.); 4: 65000 fluorescence intensity (a.u.); 5: 25100 fluorescence intensity (a.u.); 6: 4350 fluorescence intensity (a.u.); 7: 4210 fluorescence intensity (a.u.)

====

- tested system: OsSMF1 (Oryza sativa, UniProt Q6ZLB0 1-436)
- Sequence: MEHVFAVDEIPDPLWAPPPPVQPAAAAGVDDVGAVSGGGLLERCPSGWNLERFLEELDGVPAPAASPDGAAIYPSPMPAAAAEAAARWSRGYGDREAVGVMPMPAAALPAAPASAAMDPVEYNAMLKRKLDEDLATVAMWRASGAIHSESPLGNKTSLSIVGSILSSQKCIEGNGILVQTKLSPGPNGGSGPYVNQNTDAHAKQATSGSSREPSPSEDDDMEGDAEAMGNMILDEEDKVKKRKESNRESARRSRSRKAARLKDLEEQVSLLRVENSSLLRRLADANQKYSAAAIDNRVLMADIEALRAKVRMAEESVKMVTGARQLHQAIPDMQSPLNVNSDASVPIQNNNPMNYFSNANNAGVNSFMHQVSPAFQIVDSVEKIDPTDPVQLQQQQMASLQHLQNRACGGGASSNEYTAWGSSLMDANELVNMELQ
- experimental protocol: protein-binding microarray (RPBM); PBS, 2% BSA, 51.3 ng/ul salmon testes DNA, 50 uM zinc acetate, 200 nM TF, 25 C, 1 h; high values mean tight binding
- experimental parameters: protein: recombinant; tags: N-terminal polyhistidine and DsRed monomer fusion (pET32a); chain copies: 2; label: CyDye5-dUTP incorporated in the synthesized complementary strand; 3' TTTTT single-stranded linker to array surface; dsDNA, one strand shown
Over roughly 39,000 sequences, “fluorescence intensity (a.u.)” has its median near 4,300; the highest 2% begin near 39,000. This excerpt belongs to a sample that is enriched for the highest values.
assay metric: binding signal

Batch of 6 sequences: report binding signal for each.
1. GTAAATTTCATAAAATCCCACGTATTATGATTCAAATTGCCGGAGTCACCTAGTGCAG
2. AATATTTACATTACTAAATTAGTTTTATTAAATTAATAATCGGAGTCACCTAGTGCAG
3. CATATTATAAAATGTTGTGCTAATTATTATCGGTGTATATCGGAGTCACCTAGTGCAG
4. TGTTTAATAATAAATTTAGTAACATCAATTTTACATGATTCGGAGTCACCTAGTGCAG
5. ATGGCTGTTGATTTTAATAGTGCAGGAGTGGTTTATAGCTCGGAGTCACCTAGTGCAG
6. AAATATAATAAATTTAATGTTAACATATTTTACACGTAAGCGGAGTCACCTAGTGCAG

Found:
1: 5110 fluorescence intensity (a.u.); 2: 19800 fluorescence intensity (a.u.); 3: 22300 fluorescence intensity (a.u.); 4: 46100 fluorescence intensity (a.u.); 5: 4220 fluorescence intensity (a.u.); 6: 9740 fluorescence intensity (a.u.)

Below are some sequences; for each one, tell me its binding signal.
1. TTATAAATTAAATTTTATGTAATGAAAATAATATCATTGGCGGAGTCACCTAGTGCAG
2. GGGCTCCCAGTATAGCTTAGGTTGATTTAATTATGGTTAACGGAGTCACCTAGTGCAG
3. CTCTCAAAATATTCGGATGTAATTTTAGTCGCACAAACATCGGAGTCACCTAGTGCAG

Found:
["3900 fluorescence intensity (a.u.)", "49500 fluorescence intensity (a.u.)", "39200 fluorescence intensity (a.u.)"]
